- experimental.system: T1, recombinant human GARP-proTGFβ1 complex (Homo sapiens, UniProt P01137)
- T1 construct: made in house
- T1 sequence (P01137 30-390): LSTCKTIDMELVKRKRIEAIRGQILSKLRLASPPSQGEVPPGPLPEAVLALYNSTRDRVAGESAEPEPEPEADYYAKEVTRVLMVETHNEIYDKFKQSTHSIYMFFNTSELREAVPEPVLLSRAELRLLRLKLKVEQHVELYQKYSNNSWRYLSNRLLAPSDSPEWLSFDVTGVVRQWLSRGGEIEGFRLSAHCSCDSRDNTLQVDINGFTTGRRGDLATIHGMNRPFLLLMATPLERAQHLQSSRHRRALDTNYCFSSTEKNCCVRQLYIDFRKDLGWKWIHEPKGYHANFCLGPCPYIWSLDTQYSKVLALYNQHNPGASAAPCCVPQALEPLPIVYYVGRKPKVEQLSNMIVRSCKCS
- T1 sequence (Q14392 20-627 partner limits assumed): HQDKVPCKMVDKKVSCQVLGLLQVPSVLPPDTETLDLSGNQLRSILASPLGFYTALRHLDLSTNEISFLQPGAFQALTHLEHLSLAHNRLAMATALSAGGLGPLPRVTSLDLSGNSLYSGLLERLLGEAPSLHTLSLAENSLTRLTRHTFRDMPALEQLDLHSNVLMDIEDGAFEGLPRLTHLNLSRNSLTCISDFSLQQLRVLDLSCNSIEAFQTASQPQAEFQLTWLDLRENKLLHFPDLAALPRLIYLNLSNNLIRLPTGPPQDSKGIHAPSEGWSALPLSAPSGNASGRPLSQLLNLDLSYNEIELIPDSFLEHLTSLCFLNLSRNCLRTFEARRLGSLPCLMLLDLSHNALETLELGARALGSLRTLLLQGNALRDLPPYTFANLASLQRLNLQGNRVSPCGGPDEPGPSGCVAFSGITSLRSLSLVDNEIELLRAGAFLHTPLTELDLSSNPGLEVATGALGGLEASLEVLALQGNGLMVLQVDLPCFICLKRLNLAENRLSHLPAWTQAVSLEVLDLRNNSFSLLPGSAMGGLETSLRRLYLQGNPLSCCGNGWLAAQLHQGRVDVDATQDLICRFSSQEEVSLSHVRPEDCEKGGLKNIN
- method.description: Octet (Biolayer Interferometry) in vitro kinetic binding
- condition.label: in M
Some molecules, each annotated with its measured (E) hGARP, Cell-associated proTGFb1 (KD).
measured.attribute: (E) hGARP, Cell-associated proTGFb1 (KD)

- molecule: "Ab26: monoclonal antibody; VH SEQ ID NO: 134, VL SEQ ID NO: 15 (antibody, V domains shown) VH: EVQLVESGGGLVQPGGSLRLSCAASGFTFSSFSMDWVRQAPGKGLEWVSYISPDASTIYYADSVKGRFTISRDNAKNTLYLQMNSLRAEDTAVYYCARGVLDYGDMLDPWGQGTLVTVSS VL: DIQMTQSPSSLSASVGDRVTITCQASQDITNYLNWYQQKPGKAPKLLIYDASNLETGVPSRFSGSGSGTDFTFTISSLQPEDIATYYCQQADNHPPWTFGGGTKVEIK"
  value.measured: "6.25E−10"
- molecule: "Ab13: monoclonal antibody; VH SEQ ID NO: 242, VL SEQ ID NO: 243 (antibody, V domains shown) VH: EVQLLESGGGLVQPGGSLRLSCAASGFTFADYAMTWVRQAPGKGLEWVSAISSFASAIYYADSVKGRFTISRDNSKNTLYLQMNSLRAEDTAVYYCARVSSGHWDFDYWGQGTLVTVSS VL: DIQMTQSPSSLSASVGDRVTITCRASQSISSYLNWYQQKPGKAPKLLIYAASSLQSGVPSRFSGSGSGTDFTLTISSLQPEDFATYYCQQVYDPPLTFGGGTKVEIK"
  value.measured: "1.00E−08"
- molecule: "Ab14: monoclonal antibody; VH SEQ ID NO: 244, VL SEQ ID NO: 243 (antibody, V domains shown) VH: EVQLLESGGGLVQPGGSLRLSCAASGFTFSAYAMTWVRQAPGKGLEWVSAISGTGGSTYYADSVKGRFTISRDNSKNTLYLQMNSLRAEDTAVYYCARVSSGHWDFDYWGQGTLVTVSS VL: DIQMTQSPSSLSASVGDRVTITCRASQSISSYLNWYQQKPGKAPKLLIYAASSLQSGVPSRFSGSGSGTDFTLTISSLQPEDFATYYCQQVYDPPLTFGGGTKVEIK"
  value.measured: "1.05E−08"
- molecule: "Ab25: monoclonal antibody; VH SEQ ID NO: 133, VL SEQ ID NO: 15 (antibody, V domains shown) VH: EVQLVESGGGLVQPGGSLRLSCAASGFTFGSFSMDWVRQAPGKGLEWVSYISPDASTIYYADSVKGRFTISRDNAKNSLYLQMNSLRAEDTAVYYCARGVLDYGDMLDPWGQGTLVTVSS VL: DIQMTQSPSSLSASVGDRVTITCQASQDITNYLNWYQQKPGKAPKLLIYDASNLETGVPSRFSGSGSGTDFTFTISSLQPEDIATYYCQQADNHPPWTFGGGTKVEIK"
  value.measured: "4.88E−10"
- molecule: "Ab27: monoclonal antibody; VH SEQ ID NO: 135, VL SEQ ID NO: 15 (antibody, V domains shown) VH: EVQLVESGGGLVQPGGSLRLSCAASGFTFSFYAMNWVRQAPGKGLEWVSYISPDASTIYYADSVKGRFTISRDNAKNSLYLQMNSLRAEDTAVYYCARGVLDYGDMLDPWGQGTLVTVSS VL: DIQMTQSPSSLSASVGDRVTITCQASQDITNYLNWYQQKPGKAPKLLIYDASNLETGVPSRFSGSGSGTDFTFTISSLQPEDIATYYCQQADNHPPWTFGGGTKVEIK"
  value.measured: "4.24E−10"
